The reported numbers originate from patent US20250296992A1.

Below, each entry is listed alongside its reported Kd.
molecular target: T1, cynomolgus monkey SLITRK6 extracellular domain linked to his tag (cynomolgus monkey, UniProt G7PVK4 27-608); assay: BLI; antigen ECD-his on anti-his tips, antibody as analyte; 1:1 fit;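 also: antibody at several concentrations, 180 s association then 300 s dissociation in Tris buffer at pH 6 or 7.5, rate constants from global fitting, KD computed as koff/kon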
T1 construct: extracellular domain; also called cynoSLITRK6; Cyno SLITRK6; not shown: his tag
Please reply with the bare figure in nM and do not write the unit itself.

Reference set, count: 2
{"binder": "phA108 (antibody, V domains shown, From phage display, then full-length construction; Only the variable regions are tied to the name) VH: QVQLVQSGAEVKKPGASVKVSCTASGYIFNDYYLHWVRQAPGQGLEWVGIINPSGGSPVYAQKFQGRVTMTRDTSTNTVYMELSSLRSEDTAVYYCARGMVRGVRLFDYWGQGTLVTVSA VL: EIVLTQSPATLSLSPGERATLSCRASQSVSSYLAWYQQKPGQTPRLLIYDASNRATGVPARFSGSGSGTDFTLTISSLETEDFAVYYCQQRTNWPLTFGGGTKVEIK", "measure-unit": "nM", "Kd": 4.69}
{"binder": "hu1H2-13 (antibody, V domains shown) VH: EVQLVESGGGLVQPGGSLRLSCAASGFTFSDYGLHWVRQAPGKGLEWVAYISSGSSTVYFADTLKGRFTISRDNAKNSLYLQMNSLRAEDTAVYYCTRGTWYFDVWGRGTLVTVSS VL: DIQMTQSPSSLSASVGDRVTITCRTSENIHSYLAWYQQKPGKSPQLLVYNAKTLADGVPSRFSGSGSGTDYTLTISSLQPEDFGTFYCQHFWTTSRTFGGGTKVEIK", "measure-unit": "nM", "Kd": 1.36}

# next binder below
input: Supply reported Kd belonging to this binder: hu1H2-03 (antibody, V domains shown, see m20) VH: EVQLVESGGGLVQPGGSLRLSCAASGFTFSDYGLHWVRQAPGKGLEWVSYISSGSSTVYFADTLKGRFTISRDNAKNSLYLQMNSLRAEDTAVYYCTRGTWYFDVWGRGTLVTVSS VL: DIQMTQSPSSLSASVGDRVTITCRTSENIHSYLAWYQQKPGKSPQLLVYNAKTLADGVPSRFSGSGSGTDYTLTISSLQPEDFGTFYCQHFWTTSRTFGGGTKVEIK
output: 1.27
